Target: V2 (Homo sapiens, UniProt P30518)
Sequence (P30518 whole entry): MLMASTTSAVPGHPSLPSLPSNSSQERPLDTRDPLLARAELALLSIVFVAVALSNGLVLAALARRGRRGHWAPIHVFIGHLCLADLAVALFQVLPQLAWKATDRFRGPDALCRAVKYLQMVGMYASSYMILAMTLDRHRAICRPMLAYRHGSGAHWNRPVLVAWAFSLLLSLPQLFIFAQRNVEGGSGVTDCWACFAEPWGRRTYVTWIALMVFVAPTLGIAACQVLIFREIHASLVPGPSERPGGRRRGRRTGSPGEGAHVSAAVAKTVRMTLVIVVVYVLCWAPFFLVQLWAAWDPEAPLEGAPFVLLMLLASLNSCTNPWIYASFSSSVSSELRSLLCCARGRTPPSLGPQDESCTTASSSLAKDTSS
Experiment: In vitro recombinant vasopressin receptor binding assay (V2 Bdg), displacement of 3H-arginine vasopressin
Design: expressed in transfected cells; host or cells: HEK-293
Settings: membrane with cloned human V-2 receptor (HEK-293)
Property measured: IC50 (µM)
A number alone suffices; assume µM.

| Molecule | Target desc | Property measured | Recorded measurement |
| --- | --- | --- | --- |
| O=C(Nc1ccc(C(=O)N2C[C@H]3CSCCN3Cc3ccccc32)c(Cl)c1)c1ccccc1-c1ccccc1 [Compound 47] | V2 (Homo sapiens, UniProt P30518) | IC50 | 0.011 |
| COc1ccc2c(c1)CN1CCSCC1CN2C(=O)c1ccc(NC(=O)c2ccccc2-c2ccccc2)cc1 (racemic) [Compound 31] | V2 (Homo sapiens, UniProt P30518) | IC50 | 0.043 |
| O=C(Nc1ccc(C(=O)N2CC3CSCCN3Cc3cc(F)c(F)cc32)cc1)c1ccccc1-c1ccccc1 (racemic) [Compound 35] | V2 (Homo sapiens, UniProt P30518) | IC50 | 0.038 |

// query Please look up its IC50: CN1CCN2Cc3ccccc3N(C(=O)c3ccc(NC(=O)c4cc(F)ccc4-c4ccccc4)cc3Cl)CC2C1 (racemic) [Compound 100]
// result 0.037

* * *

Target: human V-1 receptor (Homo sapiens)
Construct: expressed in transfected cells; host or cells: HEK-293
Sequence (P37288 whole entry): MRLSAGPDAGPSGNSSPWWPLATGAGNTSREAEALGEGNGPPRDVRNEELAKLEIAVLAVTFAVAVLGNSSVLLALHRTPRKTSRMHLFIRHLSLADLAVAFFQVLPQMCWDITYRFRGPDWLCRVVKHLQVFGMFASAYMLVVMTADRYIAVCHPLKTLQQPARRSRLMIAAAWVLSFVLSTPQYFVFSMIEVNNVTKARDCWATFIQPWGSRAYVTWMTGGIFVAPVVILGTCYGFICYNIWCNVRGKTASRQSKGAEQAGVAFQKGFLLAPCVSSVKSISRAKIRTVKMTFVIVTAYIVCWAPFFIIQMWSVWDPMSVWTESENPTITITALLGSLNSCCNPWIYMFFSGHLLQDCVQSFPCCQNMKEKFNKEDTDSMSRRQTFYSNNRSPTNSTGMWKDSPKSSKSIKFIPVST
Experiment: In vitro recombinant vasopressin receptor binding assay (V1 Bdg), displacement of 3H-arginine vasopressin
Settings: 0.1 uM
Entries and their V1 Bdg (% inh, 0.1 uM) values follow.
The reply should contain only the number, in %.

Solved cases below.
| Compound | Target desc | V1 Bdg (% inh, 0.1 uM) (%) |
| --- | --- | --- |
| Cc1ccccc1C(=O)Nc1ccc(C(=O)N2CC3COCCN3Cc3ccccc32)cc1 (racemic) | human V-1 receptor (Homo sapiens) | 58 |
| O=C(Nc1ccc(C(=O)N2CC3COCCN3C(=O)c3ccccc32)c(Cl)c1)c1ccccc1-c1ccccc1 (racemic) | human V-1 receptor (Homo sapiens) | 2 |
| Cc1c(I)cccc1C(=O)Nc1ccc(C(=O)N2CC3CSCCN3Cc3ccccc32)c(Cl)c1 (racemic) | human V-1 receptor (Homo sapiens) | 2 |

Let us move to another entry and its V1 Bdg (% inh, 0.1 uM).
// query Suppose we examine the compound Cc1cccc(C(=O)Nc2ccc(C(=O)N3CC4CSCCN4Cc4ccccc43)c(Cl)c2)c1I (racemic) ; what V1 Bdg (% inh, 0.1 uM) value has been reported?
// result 0

* * *

Target: V2 (Homo sapiens)
Assay: In vitro recombinant vasopressin receptor binding assay (V2 Bdg), displacement of 3H-arginine vasopressin
Design: expressed in transfected cells; host or cells: HEK-293
Conditions: membrane with cloned human V-2 receptor (HEK-293)
Experimental: In vitro Recombinant Vasopressin Receptor Binding Assay Compounds were assessed for their ability to displace ^3H-arginine vasopressin from the human V-1 or V-2 receptor in HEK-293 cells. […] Into wells of 96-well round bottom polypropylene plates were added buffer, test compound, membrane (containing cloned human V-1 or V-2 receptor), and ^3H-vasopressin. The reaction plates were allowed to sit at room temperature for one hour. […] The top of the plate was sealed, and the plate was counted.
Property measured: pIC50
As a rule, pIC50 stands for the negative log10 of the concentration, concentration in M.

Would you please look over these solved cases?
| Compound | Recorded measurement |
| --- | --- |
| O=C(Nc1ccc(C(=O)N2CC3COCCN3Cc3ccccc32)c(O)c1)c1ccccc1-c1ccccc1 (racemic) | 8.00 |
| COc1cccc(-c2ccccc2C(=O)Nc2ccc(C(=O)N3CC4COCCN4Cc4ccccc43)c(Cl)c2)c1 (racemic) | 8.10 |
| O=C(Nc1ccc(C(=O)N2CC3CSCCN3Cc3cc(Cl)ccc32)cc1)c1ccccc1-c1ccccc1 (racemic) | 7.66 |
| O=C(Nc1ccc(C(=O)N2CC3CCCCN3Cc3ccccc32)cc1)c1ccccc1-c1ccccc1 (stereo not drawn) | 8.05 |
| O=C(Nc1ccc(C(=O)N2C[C@H]3COCCN3Cc3ccccc32)c(Cl)c1)c1cc(O)ccc1-c1ccccc1 | 7.57 |

// query Tell me reported pIC50 for O=C(Nc1ccc(C(=O)N2CC3CC=CCN3Cc3ccccc32)cc1)c1ccccc1-c1ccccc1 (stereo not drawn) , tested with V2 (Homo sapiens).
// result 7.85

* * *

Molecular target: V2 (Homo sapiens)
Experiment: In vitro recombinant vasopressin receptor binding assay (V2 Bdg), displacement of 3H-arginine vasopressin
Set-up: expressed in transfected cells; host or cells: HEK-293
Conditions: membrane with cloned human V-2 receptor (HEK-293)
Below, each entry is listed alongside its reported pIC50.
# pIC50 is unitless: minus log10 of the molar concentration; print number only

Consider the worked cases shown below.
| Compound | Target desc | pIC50 |
| --- | --- | --- |
| Cc1ccc2c(c1)CN1CCSCC1CN2C(=O)c1ccc(NC(=O)c2ccccc2-c2ccccc2)cc1 (racemic) [Compound 36] | V2 (Homo sapiens) | 7.74 |
| O=C(Nc1ccc(C(=O)N2CC3CSCCN3Cc3cc(F)ccc32)cc1)c1ccccc1-c1ccccc1 (racemic) [Compound 32] | V2 (Homo sapiens) | 7.70 |
| O=C(Nc1ccc(C(=O)N2C[C@H]3COCCN3Cc3ccccc32)c(Cl)c1)c1ccccc1-c1cccc(O)c1 [Compound 7] | V2 (Homo sapiens) | 7.96 |
| O=C(Nc1ccc(C(=O)N2CC3CSCCN3Cc3ccccc32)c(Cl)c1)c1ccccc1-c1ccsc1 (racemic) [Compound 50] | V2 (Homo sapiens) | 7.40 |
| Cc1ccccc1C(=O)Nc1ccc(C(=O)N2CC3COCCN3Cc3ccccc32)c(C)c1 (racemic) [Compound 27] | V2 (Homo sapiens) | 7.89 |

// query # query: pIC50 of entry O=C(Nc1ccc(C(=O)N2CC3COCCN3Cc3ccccc32)cc1O)c1ccccc1-c1ccccc1 (racemic) [Compound 22]
// result 8.22

// query # input compound: COc1ccc(C(=O)Nc2ccc(C(=O)N3CC4COCCN4Cc4ccccc43)c(Cl)c2)c(-c2ccccc2)c1 (racemic) [Compound 115] ; wanted: its pIC50
// result 8.05

// query Field request: pIC50 | item: Cc1cccc(C)c1C(=O)Nc1ccc(C(=O)N2CC3COCCN3Cc3ccccc32)c(Cl)c1 (racemic) [Compound 10]
// result 8.05

* * *

Where a name gives a salt, the structure may show the parent alone.
Recorded melting point by entry

| Compound | melting point |
| --- | --- |
| O=C(Nc1ccc(C(=O)N2CC3CCCCN3Cc3ccccc32)cc1)c1ccccc1-c1ccccc1 (centres unmarked) (as salt: HCl) | 191 to 193 °C |
| O=C(Nc1ccc(C(=O)N2CC3CSCCN3Cc3cc(F)c(F)cc32)cc1)c1ccccc1-c1ccccc1 (racemic) (as salt: HCl) | 194 to 199 °C |
| O=C(Nc1ccc(C(=O)N2CC3CSCCN3Cc3cc(F)ccc32)cc1)c1ccccc1-c1ccccc1 (racemic) (as salt: HCl) | 177 to 180 °C |

// query Need melting point of O=C(Nc1ccc(C(=O)N2C[C@H]3COCCN3Cc3ccccc32)c(Cl)c1)c1ccccc1-c1ccccc1 (as salt: HCl) (hydrate or solvate) , thanks.
// result > 210 °C (dec.)

// query Any idea what its melting point is? The compound is O=C(Nc1ccc(C(=O)N2CC3COCCN3Cc3ccccc32)c(O)c1)c1ccccc1-c1ccccc1 (racemic) (as salt: HCl)
// result 185 to 188 °C (dec.)

// query I am curious: what melting point value has been reported for O=C(Nc1ccc(C(=O)N2C[C@H]3CSCCN3Cc3ccccc32)c(Cl)c1)c1ccccc1-c1ccccc1 (as salt: HCl) ?
// result 192 to 197 °C

// query Entry O=C(Nc1ccc(C(=O)N2CC3COCCN3Cc3ccccc32)cc1O)c1ccccc1-c1ccccc1 (racemic) (as salt: HCl) has what melting point?
// result 188 to 195 °C (dec.)

// query Given the compound Cc1ccc2c(c1)CN1CCSCC1CN2C(=O)c1ccc(NC(=O)c2ccccc2-c2ccccc2)cc1 (racemic) (as salt: HCl) , what is its reported melting point?
// result 191 to 196 °C

* * *

Molecular target: V2 (Homo sapiens, UniProt P30518)
Experiment: In vitro recombinant vasopressin receptor binding assay (V2 Bdg), displacement of 3H-arginine vasopressin
Parameters: expressed in transfected cells; host or cells: HEK-293
Conditions: membrane with cloned human V-2 receptor (HEK-293)
Description: In vitro Recombinant Vasopressin Receptor Binding Assay Compounds were assessed for their ability to displace ^3H-arginine vasopressin from the human V-1 or V-2 receptor in HEK-293 cells. […] Into wells of 96-well round bottom polypropylene plates were added buffer, test compound, membrane (containing cloned human V-1 or V-2 receptor), and ^3H-vasopressin. The reaction plates were allowed to sit at room temperature for one hour. […] The top of the plate was sealed, and the plate was counted.
pIC50: −log10 of the molar value.
Label rule, in plain words: pIC50 of 8 and up is rule met, under 8 is rule not met.

Here are 10 compounds together with their reported answers.
| Compound | Class |
| --- | --- |
| O=C(Nc1ccc(C(=O)N2CC3COCCN3Cc3ccccc32)c(Cl)c1)c1ccccc1SC(F)F (racemic) [Compound 19] | rule not met |
| O=C(Nc1ccc(C(=O)N2C[C@@H]3COCCN3Cc3ccccc32)c(Cl)c1)c1ccccc1-c1ccccc1 [Compound 13] | rule not met |
| O=C(Nc1ccc(C(=O)N2C[C@H]3COCCN3Cc3ccccc32)c(Cl)c1)c1ccccc1-c1ccccc1 [Compound 4] | rule met |
| CN(C)c1cc(NC(=O)c2ccccc2-c2ccccc2)ccc1C(=O)N1C[C@H]2CSCCN2Cc2ccccc21 [Compound 46] | rule not met |
| O=C(Nc1ccc(C(=O)N2CC3COCCN3Cc3ccccc32)c(Cl)c1)c1ccc(F)cc1-c1ccccc1 (racemic) [Compound 114] | rule met |
| Cc1cc(NC(=O)c2ccccc2-c2ccccc2)ccc1C(=O)N1CC2CSCCN2Cc2ccccc21 (racemic) [Compound 107] | rule not met |
| COc1ccc(-c2ccccc2)c(C(=O)Nc2ccc(C(=O)N3CC4COCCN4Cc4ccccc43)c(Cl)c2)c1 (racemic) [Compound 116] | rule not met |
| O=C(Nc1ccc(C(=O)N2CC3COCCN3Cc3ccccc32)c(Cl)c1)c1cc(F)ccc1-c1ccccc1 (racemic) [Compound 111] | rule not met |
| O=C(Nc1ccc(C(=O)N2CC3CSCCN3Cc3ccccc32)c(F)c1)c1ccccc1-c1ccccc1 (racemic) [Compound 106] | rule not met |
| O=C(Nc1ccc(C(=O)N2CC3CSCCN3Cc3cc(F)ccc32)c(Cl)c1)c1ccccc1-c1ccccc1 (racemic) [Compound 38] | rule not met |

Turning now to a further compound:
// query Is pIC50 at least 8? Consider O=C(Nc1ccc(C(=O)N2CC3COCCN3Cc3ccccc32)c(Cl)c1)c1cccc(Cl)c1F (racemic) [Compound 18]
// result rule not met
